Tgt: Cellular tumor antigen p53 (Homo sapiens) (UniProt P04637)
Sequence (P04637 whole entry, looked up): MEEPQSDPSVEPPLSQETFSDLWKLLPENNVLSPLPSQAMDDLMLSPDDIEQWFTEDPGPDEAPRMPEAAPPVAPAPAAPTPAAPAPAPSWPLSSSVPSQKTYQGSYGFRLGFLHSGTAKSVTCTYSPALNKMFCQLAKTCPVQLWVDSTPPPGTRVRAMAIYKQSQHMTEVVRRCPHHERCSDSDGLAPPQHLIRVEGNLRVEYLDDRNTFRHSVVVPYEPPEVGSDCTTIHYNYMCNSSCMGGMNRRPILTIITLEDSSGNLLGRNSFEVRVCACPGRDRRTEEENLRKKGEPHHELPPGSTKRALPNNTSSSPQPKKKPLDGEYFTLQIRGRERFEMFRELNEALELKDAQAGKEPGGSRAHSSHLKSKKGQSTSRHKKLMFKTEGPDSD
Assay: TOX21_p53_BLA_p2_ratio: Tox21 HCT-116 p53 Agonism Beta-lactamase Assay, Ratio, Phase 2 (AID 2283592)
Inconclusive results are not listed. The source made the active and inactive calls. The calls were made as follows: active = hit-call score of the fitted dose curve at least 0.9, where 1 is the maximum; inconclusive = response in the unintended direction; inactive = score below 0.9.
Outcomes you can answer with include only these: label 1 (active), label 0 (inactive)

Which result was noted for this molecule in the test: CCCC(=O)c1cc(O)c(O)cc1O
label 0

Which result was noted for this molecule in the test: CC1=CCC2C(C1)C2(C)C (stereo not drawn)
label 0

Which result was noted for this molecule in the test: CCc1ccc(C=O)cc1
label 0

Which result was noted for this molecule in the test: CCCCCCCCCCCCCOS(=O)(=O)O
label 1

Which result was noted for this molecule in the test: NCCNCCN
label 0

Which result was noted for this molecule in the test: C=C(C)C(=O)NCCCN(C)C
label 0

Which result was noted for this molecule in the test: CC1CCC(C(C)CS)CC1S (stereo not drawn)
label 0

Which result was noted for this molecule in the test: CC(CCO)CCc1ccccc1 (stereo not drawn)
label 0

Which result was noted for this molecule in the test: OC1OC[C@@H](O)[C@H](O)[C@H]1O (stereo partly drawn)
label 0

Which result was noted for this molecule in the test: CC(C)OP(=O)(CP(=O)(OC(C)C)OC(C)C)OC(C)C
label 0

Which result was noted for this molecule in the test: C=C(C)[C@@H]1CC[C@@H](C)C[C@@H]1O
label 0

Which result was noted for this molecule in the test: CCC(C(=O)NC(N)=O)c1ccccc1 (stereo not drawn)
label 0

Which result was noted for this molecule in the test: CC(=O)O[C@]1(C(C)=O)CC[C@H]2[C@@H]3C[C@H](C)C4=CC(=O)CC[C@]4(C)[C@H]3CC[C@@]21C
label 0

Which result was noted for this molecule in the test: CC(=O)C(=O)O
label 0

Which result was noted for this molecule in the test: CC(C)C(C)(C)C(C)(C)C(C)(C)S
label 0

Which result was noted for this molecule in the test: Cc1ccc(C=O)s1
label 0

Which result was noted for this molecule in the test: C=COCCOCCOCCOC=C
label 0

Which result was noted for this molecule in the test: CCC(C)CCCC(C)(C)O (stereo not drawn)
label 0

Which result was noted for this molecule in the test: CCCCCCCCCC=O
label 0

Which result was noted for this molecule in the test: CC(=O)C(C)=O
label 0

Which result was noted for this molecule in the test: Nc1cc([N+](=O)[O-])ccc1O
label 0

Which result was noted for this molecule in the test: CC(=O)OCc1ccc2c(c1)OCO2
label 0

Which result was noted for this molecule in the test: O=C(O)c1ccc(C(=O)O)cc1
label 0

Which result was noted for this molecule in the test: CC(=O)OCCC(C)CC(C)(C)C (stereo not drawn)
label 0

Which result was noted for this molecule in the test: CN(CCOc1ccc(CC2SC(=O)NC2=O)cc1)c1ccccn1 (stereo not drawn)
label 0

Which result was noted for this molecule in the test: O=Cc1ccc(F)cc1
label 0

Which result was noted for this molecule in the test: CN(C)C(=N)N=C(N)N
label 0

Which result was noted for this molecule in the test: O=C(O)COCCN1CCN(C(c2ccccc2)c2ccc(Cl)cc2)CC1 (stereo not drawn)
label 0

Which result was noted for this molecule in the test: O=C(O)Cc1cccc2ccccc12
label 0

Which result was noted for this molecule in the test: COCCOCCOCCOCCOCCO
label 0

Which result was noted for this molecule in the test: CC(C)(C)NC(N)=O
label 0

Which result was noted for this molecule in the test: O=[N+]([O-])c1cc(C(F)(F)F)ccc1Cl
label 0

Which result was noted for this molecule in the test: CC1CCC2CC1C2(C)C (stereo not drawn)
label 0

Which result was noted for this molecule in the test: COCCCOc1ccnc(CS(=O)c2nc3ccccc3[nH]2)c1C (stereo not drawn)
label 0

Which result was noted for this molecule in the test: CCCC1CCC(=O)O1 (stereo not drawn)
label 0

Which result was noted for this molecule in the test: Cc1ccc2ccccc2n1
label 0

Which result was noted for this molecule in the test: N#Cc1ccccc1
label 0

Which result was noted for this molecule in the test: CCCCO
label 0

Which result was noted for this molecule in the test: CC(C)Oc1ccccc1O
label 0

Which result was noted for this molecule in the test: CC(C)(C#N)c1cc(Cn2cncn2)cc(C(C)(C)C#N)c1
label 0

Which result was noted for this molecule in the test: CO[Si](C)(OC)c1ccccc1
label 0

Which result was noted for this molecule in the test: O=C(O)c1ccc([N+](=O)[O-])cc1
label 0

Which result was noted for this molecule in the test: CCCc1ccccc1O
label 0

Which result was noted for this molecule in the test: CCCCC(CC)COC(=O)/C=C\C(=O)OCC(CC)CCCC (stereo not drawn)
label 0

Which result was noted for this molecule in the test: CCC(=O)OCCC(C)CCC=C(C)C (stereo not drawn)
label 0

Which result was noted for this molecule in the test: CCCCCCCCCCCCCC(=O)O
label 0

Which result was noted for this molecule in the test: NC(N)=NC(=O)c1nc(Cl)c(N)nc1N
label 0

Which result was noted for this molecule in the test: O=C(Oc1ccccc1)c1ccc(O)cc1
label 0

Which result was noted for this molecule in the test: O=C(O)CN(CCN(CC(=O)O)CC(=O)O)CCN(CC(=O)O)CC(=O)O
label 0

Which result was noted for this molecule in the test: ClCCCl
label 0

Which result was noted for this molecule in the test: CC(=O)OCCOC(C)=O
label 0

Which result was noted for this molecule in the test: CC1(CO)CN(c2ccccc2)NC1=O (stereo not drawn)
label 0

Which result was noted for this molecule in the test: CC(=O)O[C@H](CC(=O)[O-])C[N+](C)(C)C
label 0

Which result was noted for this molecule in the test: CC(C)(C)c1n[nH]c(=S)n(N)c1=O
label 0

Which result was noted for this molecule in the test: O=C(O)c1cccc(C(F)(F)F)c1
label 0

Which result was noted for this molecule in the test: CC(C)=CCC/C(C)=C/COC=O
label 0

Which result was noted for this molecule in the test: CCCCCCOC(=O)CCCCC
label 0

Which result was noted for this molecule in the test: CN(C)CCOCCN(C)C
label 0

Which result was noted for this molecule in the test: CCCCC/C=C/C=C/C=O
label 0

Which result was noted for this molecule in the test: O=C1CCc2ccccc2O1
label 0

Which result was noted for this molecule in the test: COC(=O)c1ccc(C)cc1
label 0

Which result was noted for this molecule in the test: CC1(C)CCC(C)(C)c2cc(C(=O)Nc3ccc(C(=O)O)cc3)ccc21
label 1

Which result was noted for this molecule in the test: CC(C)c1cccc(O)c1
label 0

---

Assay: ATG_Sox_CIS: Attagene CIS-FACTORIAL HepG2 Assay for human SRY-box transcription factor (SOX) (AID 2282960)
Condition summary: HepG2 Attagene cis-factorial SOX reporter, mRNA; actives raise or lower the signal
Active and inactive are the calls of the source. The calls were made as follows: active = hit-call score of the fitted dose curve at least 0.9, where 1 is the maximum; inactive = score below 0.9.
Outcomes you can answer with include only these: active, inactive

Which result was noted for this molecule in the test: Fc1c(F)c(F)c(Br)c(F)c1F
inactive

Which result was noted for this molecule in the test: O=S(=O)(O)c1ccc(O)c2ncccc12
inactive

Which result was noted for this molecule in the test: CC1CC(OC(=O)c2ccccc2O)CC(C)(C)C1 (stereo not given)
inactive

Which result was noted for this molecule in the test: c1ccc2sc(SN(C3CCCCC3)C3CCCCC3)nc2c1
inactive

Which result was noted for this molecule in the test: CCCCCNCCCCC
inactive

Which result was noted for this molecule in the test: NC(=O)c1ccccc1Cl
active

Which result was noted for this molecule in the test: Clc1sc(Cl)c(Cl)c1Cl
inactive

Which result was noted for this molecule in the test: Cc1ccc(C=O)s1
inactive

Which result was noted for this molecule in the test: OC1OC[C@@H](O)[C@H](O)[C@H]1O (stereo not given in full)
inactive

Which result was noted for this molecule in the test: O=c1[nH]c(=O)n([C@H]2CCCO2)cc1F
inactive

Which result was noted for this molecule in the test: CCCCCCCCC
inactive

Which result was noted for this molecule in the test: COC(=O)OC
inactive

Which result was noted for this molecule in the test: O=c1cc(-c2ccccc2)oc2cc(O)cc(O)c12
inactive

Which result was noted for this molecule in the test: c1ccc2[nH]ccc2c1
inactive

Which result was noted for this molecule in the test: OCC(CO)(CO)COCC(CO)(CO)CO
inactive

---

Tgt: Aryl hydrocarbon receptor (Homo sapiens) (UniProt P35869)
Sequence (P35869 whole entry, looked up): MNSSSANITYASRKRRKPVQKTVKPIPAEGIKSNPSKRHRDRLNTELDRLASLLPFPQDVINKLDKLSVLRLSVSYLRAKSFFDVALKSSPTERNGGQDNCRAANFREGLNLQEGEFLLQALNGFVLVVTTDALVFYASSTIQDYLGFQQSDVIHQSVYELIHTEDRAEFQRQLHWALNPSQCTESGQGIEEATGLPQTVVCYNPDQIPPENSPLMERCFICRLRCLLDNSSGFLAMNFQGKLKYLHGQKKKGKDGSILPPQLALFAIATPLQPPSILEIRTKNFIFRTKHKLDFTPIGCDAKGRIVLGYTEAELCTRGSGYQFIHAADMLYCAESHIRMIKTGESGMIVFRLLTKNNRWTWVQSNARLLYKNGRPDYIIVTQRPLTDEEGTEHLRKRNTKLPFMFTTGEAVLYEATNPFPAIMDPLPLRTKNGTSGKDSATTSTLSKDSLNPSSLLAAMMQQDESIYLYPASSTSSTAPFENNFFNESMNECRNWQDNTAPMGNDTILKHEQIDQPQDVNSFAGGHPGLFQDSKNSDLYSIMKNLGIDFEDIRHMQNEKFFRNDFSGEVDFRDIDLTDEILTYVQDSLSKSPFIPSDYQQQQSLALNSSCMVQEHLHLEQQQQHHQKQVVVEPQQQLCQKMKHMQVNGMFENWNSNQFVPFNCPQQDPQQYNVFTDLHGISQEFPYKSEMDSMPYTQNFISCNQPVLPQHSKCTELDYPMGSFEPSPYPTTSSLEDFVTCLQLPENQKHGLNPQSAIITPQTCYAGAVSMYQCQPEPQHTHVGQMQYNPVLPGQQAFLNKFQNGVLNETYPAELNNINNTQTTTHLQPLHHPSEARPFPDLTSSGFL
Assay: ATG_Ahr_CIS: Attagene CIS-FACTORIAL HepG2 Assay for human Aryl Hydrocarbon Receptor (Ahr) (AID 2282930)
Condition summary: HepG2 AhR cis-factorial reporter transcription; actives raise or lower the signal
Active and inactive are the calls of the source. The calls were made as follows: active = hit-call score of the fitted dose curve at least 0.9, where 1 is the maximum; inactive = score below 0.9.
Outcomes you can answer with include only these: active, inactive

Which result was noted for this molecule in the test: COC(=O)Cc1cccc2ccccc12
inactive

Which result was noted for this molecule in the test: CCC(C(=O)NC(N)=O)c1ccccc1 (centres undefined)
inactive

Which result was noted for this molecule in the test: OCCOc1cccc(OCCO)c1
inactive

Which result was noted for this molecule in the test: OCCOCCOCCOCCO
active

Which result was noted for this molecule in the test: COC(=O)c1ccc(C)cc1
inactive

Which result was noted for this molecule in the test: O=C1O[C@@H]2[C@@H](O)[C@H](O)O[C@@H]2[C@H]1O
inactive

Which result was noted for this molecule in the test: NC(=O)NC1NC(=O)NC1=O (centres undefined)
inactive

Which result was noted for this molecule in the test: O=C=NC1CCC(CC2CCC(N=C=O)CC2)CC1 (centres undefined)
active

Which result was noted for this molecule in the test: CO[Si](CCCn1c(=O)n(CCC[Si](OC)(OC)OC)c(=O)n(CCC[Si](OC)(OC)OC)c1=O)(OC)OC
inactive

Which result was noted for this molecule in the test: NCCOCCO
inactive

Which result was noted for this molecule in the test: FC1(F)C(F)(F)C(F)(F)C2(F)C(F)(C1(F)F)C(F)(F)C(F)(F)C1(F)C(F)(F)C(F)(F)C(F)(F)C(F)(F)C12F (centres undefined)
inactive

Which result was noted for this molecule in the test: CCOC(=O)c1ccccc1OC
inactive

Which result was noted for this molecule in the test: Fc1c(F)c(F)c(Br)c(F)c1F
inactive

Which result was noted for this molecule in the test: Nc1cc([N+](=O)[O-])ccc1Cl
active

Which result was noted for this molecule in the test: CCCCCC(CO)CCC (centres undefined)
inactive

Which result was noted for this molecule in the test: CC(C)Oc1ccccc1O
active

Which result was noted for this molecule in the test: Cc1cccc(Nc2ccccc2C(=O)O)c1C
inactive

Which result was noted for this molecule in the test: CCCCCCCCCCCCN
inactive

Which result was noted for this molecule in the test: Cc1ccc(C(C)C)cc1O
inactive

Which result was noted for this molecule in the test: Cc1ncc([N+](=O)[O-])n1C
inactive

Which result was noted for this molecule in the test: CCCCC(CC)COC(=O)/C=C\C(=O)OCC(CC)CCCC (centres undefined)
inactive

Which result was noted for this molecule in the test: Cc1c(Cl)c(=O)oc2cc(O)ccc12
inactive

Which result was noted for this molecule in the test: CC(=O)O[C@]1(C(C)=O)CC[C@H]2[C@@H]3C[C@H](C)C4=CC(=O)CC[C@]4(C)[C@H]3CC[C@@]21C
inactive

Which result was noted for this molecule in the test: OCCCCCO
inactive

Which result was noted for this molecule in the test: C=CC(=O)NCOCC(C)C
inactive

Which result was noted for this molecule in the test: CC(=O)OCCOC(C)=O
inactive

Which result was noted for this molecule in the test: C=C(C)C(=O)NCCCN(C)C
inactive

Which result was noted for this molecule in the test: Cc1ccccc1C=O
active

Which result was noted for this molecule in the test: CCCCCCCCCCCCCCCC(=O)OC[C@H](O)[C@H]1OC(=O)C(O)=C1O
active

Where do these numbers come from? They come from PubChem BioAssay (EPA / NIEHS).
